System: NSC Lung
test: NCI assay, average per cancer type
condition_description: Homo sapiens, 48 h, read-out: Average LOG10 LC50
result_type: CC50 (µM)
Numbers only, in µM.

Answered examples (3):
| compound | result_type | unit_of_measure | numeric_value |
| --- | --- | --- | --- |
| COC(=O)[C@@H]1CC2=C(C(=O)c3c(c(OC)c4ccccc4c3O)C2=O)[C@@H](O[C@H]2C[C@H](NC(=O)C(F)(F)F)[C@H](O)[C@H](C)O2)O1 (mixture of isomers) | CC50 | µM | 69.2 |
| COC(=O)C1CC2=C(C(=O)c3c(cc4ccccc4c3O)C2=O)C(O[C@H]2C[C@H](NC(=O)C(F)(F)F)[C@H](O)[C@H](C)O2)O1 (mixture of isomers) | CC50 | µM | 6.17 |
| CCOC(=O)[C@@H]1CC2=C(C(=O)c3c(cc4ccccc4c3OC(C)=O)C2=O)[C@@H](O)O1 (relative stereo) | CC50 | µM | 11.5 |

// query Returns the measured CC50 for the input compound. Input: CCOC(=O)C1CC2=C(CO1)C(=O)c1c(cc3ccccc3c1O)C2=O (centres unmarked)
// result 50.1

Numbers sourced from patent US5593970A.
